meta.source: paper PMC4369446

target: T1, KIAA0935 peptide on HLA-A*02:01 (human); assay: cytokine release
T1 peptide: RVTDEAGHPV
Quantity kind: binding result

SIG35α / TRBV27 Cl.794 (TCR) alpha TRAV12-2 J35 CDR3: CAVSIGFGNVL beta TRBV27 TRBJ1-2 CDR3: CASSLLGDYGYTF; no recognition
SIG35α / TRBV27 Cl.788 (TCR) alpha TRAV12-2 J35 CDR3: CAVSIGFGNVL beta TRBV27 TRBJ2-7 CDR3: CASGPSYEQYF; no recognition
SIG35α / TRBV27 Cl.413 (TCR) alpha TRAV12-2 J35 CDR3: CAVSIGFGNVL beta TRBV27 TRBJ1-4 CDR3: CASSVFGGDMGEKLFF; no recognition
